The reported numbers originate from ChEMBL document CHEMBL4138085.

- System: Candida albicans
- protocolText: Antifungal activity against Candida albicans ATCC 76615 after 24 hrs by NCCLS two fold broth microdilution method
- Type: functional
- conditionSet: ATCC 76615, 24 h
measurementName: MIC

INSERT INTO measurements (recordsmiles, systemundertest, result) VALUES
  ('CCCCCCCCCCn1c(CS(=O)(=O)c2ccc(NC(C)=O)cc2)nc2ccccc21', 'Candida albicans', '512 µg/mL'),
  ('Nc1ccc(S(=O)(=O)Cc2nc3ccccc3n2CCCCCn2c3ccccc3c3ccccc32)cc1', 'Candida albicans', '512 µg/mL'),
  ('CCn1c(CS(=O)(=O)c2ccc(N)cc2)nc2ccccc21', 'Candida albicans', '256 µg/mL'),
  ('CC(=O)Nc1ccc(S(=O)(=O)Cc2nc3ccccc3n2Cc2cccc(F)c2)cc1', 'Candida albicans', '256 µg/mL'),
  ('CC(=O)Nc1ccc(S(=O)(=O)Cc2nc3ccccc3n2Cc2cccc(Cl)c2)cc1', 'Candida albicans', '512 µg/mL'),
  ('CCCCCn1c(CS(=O)(=O)c2ccc(NC(C)=O)cc2)nc2ccccc21', 'Candida albicans', '256 µg/mL'),
  ('CCCn1c(CS(=O)(=O)c2ccc(NC(C)=O)cc2)nc2ccccc21', 'Candida albicans', '64 µg/mL'),
  ('CC(=O)Nc1ccc(S(=O)(=O)Cc2nc3ccccc3[nH]2)cc1', 'Candida albicans', '32 µg/mL'),
  ('CCCCCCCCn1c(CS(=O)(=O)c2ccc(NC(C)=O)cc2)nc2ccccc21', 'Candida albicans', '512 µg/mL'),
  ('CCCCCCn1c(CS(=O)(=O)c2ccc(NC(C)=O)cc2)nc2ccccc21', 'Candida albicans', '512 µg/mL'),
  ('CC(=O)Nc1ccc(S(=O)(=O)Cc2nc3ccccc3n2Cc2ccccc2F)cc1', 'Candida albicans', '256 µg/mL'),
  ('Nc1ccc(S(=O)(=O)Cc2nc3ccccc3n2Cc2ccc(Cl)cc2)cc1', 'Candida albicans', '256 µg/mL'),
  ('CCCCCn1c(CS(=O)(=O)c2ccc(N)cc2)nc2ccccc21', 'Candida albicans', '512 µg/mL'),
  ('CCCCCCCn1c(CS(=O)(=O)c2ccc(N)cc2)nc2ccccc21', 'Candida albicans', '512 µg/mL'),
  ('CCCCCCCCCCCCn1c(CS(=O)(=O)c2ccc(N)cc2)nc2ccccc21', 'Candida albicans', '512 µg/mL'),
  ('CCCCCCCn1c(CS(=O)(=O)c2ccc(NC(C)=O)cc2)nc2ccccc21', 'Candida albicans', '512 µg/mL'),
  ('CCn1c(CS(=O)(=O)c2ccc(NC(C)=O)cc2)nc2ccccc21', 'Candida albicans', '64 µg/mL'),
  ('Nc1ccc(S(=O)(=O)Cc2nc3ccccc3n2Cc2cccc(F)c2)cc1', 'Candida albicans', '128 µg/mL'),
  ('CC(=O)Nc1ccc(S(=O)(=O)Cc2nc3ccccc3n2Cc2ccc(Cl)cc2Cl)cc1', 'Candida albicans', '512 µg/mL'),
  ('CCCCCCCCCCn1c(CS(=O)(=O)c2ccc(N)cc2)nc2ccccc21', 'Candida albicans', '512 µg/mL'),
  ('CCCCCCCCCCCCCCCCCCn1c(CS(=O)(=O)c2ccc(N)cc2)nc2ccccc21', 'Candida albicans', '512 µg/mL');
